Entries annotated with measured protein stability index
B1: RSPH3 (parent)
chain: FIPAKTGKDVATQILEGELFDFDL

Variants of: B1
Protocol summary: protein stability index of a GFP-peptide fusion (GPS, HEK-293T) (PSI 1-6); higher = more stable;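 note: lentivirally expressed fusions sorted by FACS into six bins by GFP to DsRed ratio, PSI derived from sequencing read proportions per bin multiplied by bin number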
Experimental setup: c terminus: a fixed tail appended

{"columns": ["Mutation name", "protein stability index"],
 "data": [
  ["F1N", 4.98],
  ["T12P", 1.8],
  ["F20R", 1.86],
  ["L24P", 2.47],
  ["E16Y", 2.01],
  ["Q13W", 1.95],
  ["T6C", 1.29],
  ["E16W", 2.07],
  ["D21I", 2.72],
  ["K8P", 2.15],
  ["A11E", 2.35]
]}
